# Target: human FFA2-eYFP (Homo sapiens)
# Construct: expressed in transfected cells; host or cells: membranes of Flp-In T-Rex 293 cells induced to express the construct
# Test Method Notes: [35S]GTPγS incorporation assay, membranes of Flp-In T-Rex 293 cells
# Assay type: biochemical
# Test Parameters: hFFA2, propionate at EC80; mean ± SEM, three or more experiments
Mark yes (1) for reported GTPγS pIC50 of 8 or greater; mark no (0) for anything smaller.

1) COc1cccc(CC(=O)N[C@@H](Cc2ccc(C(F)(F)F)cc2)Cc2nnn[nH]2)c1 [Compound 16l] = yes (1)

### Prompt Tell me whether GTPγS pIC50 is at least 8 here: O=C(Cc1cccc(Cl)c1)N[C@@H](Cc1ccc(C(F)(F)F)cc1)Cc1nnn[nH]1 [Compound 16e]
### Response yes (1)

### Prompt Again, but for O=C(Cc1cccc(OC(F)(F)F)c1)N[C@@H](Cc1ccc(C(F)(F)F)cc1)Cc1nnn[nH]1 [Compound 16n]
### Response no (0)

### Prompt Another: CCCCCC(=O)N[C@@H](Cc1ccc(C(F)(F)F)cc1)Cc1nnn[nH]1 [Compound 16p]
### Response no (0)

* * *

Each entry below carries its recorded LLEcAMP.
# Target: hFFA2 (Homo sapiens)
# Construct: expressed in transfected cells; host or cells: Flp-In T-Rex 293 cells, doxycycline-induced
# Test Method Notes: cAMP assay, antagonist mode, Flp-In T-Rex 293 cells expressing hFFA2-eYFP
# Assay type: cell-based
# Test Parameters: pIC50, cAMP – ClogP
Reply with just the number.

Sample records with LLEcAMP:
1) O=C(Cc1ccc(Cl)cc1)N[C@@H](Cc1ccc(C(F)(F)F)cc1)Cc1nnn[nH]1 [Compound 16f] = 4.80
2) O=C(Cc1cccc(F)c1)N[C@@H](Cc1ccc(C(F)(F)F)cc1)Cc1nnn[nH]1 [Compound 16c] = 5.55
3) O=C(Cc1ccccn1)N[C@@H](Cc1ccc(C(F)(F)F)cc1)Cc1nnn[nH]1 [Compound 16r] = 4.86
4) O=C(Cc1cccc(Br)c1)N[C@@H](Cc1ccc(C(F)(F)F)cc1)Cc1nnn[nH]1 [Compound 16g] = 4.78
5) O=C(Cc1cccc(Cl)c1)N[C@@H](Cc1ccc(C(F)(F)F)cc1)Cc1nnn[nH]1 [Compound 16e] = 4.87

### Prompt Sample O=C(Cc1cccc(F)c1)N[C@@H](Cc1ccccc1)Cc1nnn[nH]1 [Compound 16d] — what was its LLEcAMP?
### Response 5.09

### Prompt Now consider O=C(Cc1cncc(Br)c1)N[C@@H](Cc1ccc(C(F)(F)F)cc1)Cc1nnn[nH]1 [Compound 16w] .
### Response 5.90

* * *

# Test Method Notes: Pharmacokinetic study in mice
# Format: in vivo
# Test Parameters: male, BALB/cAnC, mouse, plasma, po admin 10 mg/kg
Experimental Endpoint: Cmax (ng/mL)
Quick reminder: number only, in ng/mL, skip the unit.

### Prompt // query Cmax value for entry COc1cccc(CC(=O)N[C@@H](Cc2ccc(C(F)(F)F)cc2)Cc2nnn[nH]2)c1 [Compound 16l]
### Response 6240

* * *

# Target: hFFA2 (Homo sapiens, UniProt O15552)
# Construct: expressed in transfected cells; host or cells: Flp-In T-Rex 293 cells, doxycycline-induced
# Test Method Notes: cAMP assay, antagonist mode, Flp-In T-Rex 293 cells expressing hFFA2-eYFP
# Assay type: cell-based
# Test Parameters: pIC50, cAMP – ClogP
Experimental Endpoint: LLEcAMP
Give only the figure.

Solved cases (10 shown):
1) O=C(Cc1ccncc1)N[C@@H](Cc1ccc(C(F)(F)F)cc1)Cc1nnn[nH]1 [Compound 16t] = 4.67
2) O=C(Cc1cccnc1)N[C@@H](Cc1ccc(C(F)(F)F)cc1)Cc1nnn[nH]1 [Compound 16s] = 5.82
3) O=C(Cc1cccc(Cl)c1)N[C@H](CCc1nnn[nH]1)Cc1ccc(C(F)(F)F)cc1 [Compound 21] = 3.75
4) COc1cccc(CC(=O)N[C@@H](Cc2ccc(C(F)(F)F)cc2)Cc2nnn[nH]2)c1 [Compound 16l] = 5.87
5) O=C(CCc1ccccc1)N[C@@H](Cc1ccc(C(F)(F)F)cc1)Cc1nnn[nH]1 [Compound 16q] = 3.89
6) O=C(Cc1ccccc1)N[C@@H](Cc1ccc(C(F)(F)F)cc1)Cc1nnn[nH]1 [Compound 16a] = 5.33
7) O=C(O)C[C@H](Cc1ccc(C(F)(F)F)cc1)NC(=O)Cc1cccc(Cl)c1 [Compound 3, reference compound] = 2.75
8) O=C(CC1CCCC1)N[C@@H](Cc1ccc(C(F)(F)F)cc1)Cc1nnn[nH]1 [Compound 16o] = 2.35
9) O=C(Cc1cccc(C(F)(F)F)c1)N[C@@H](Cc1ccc(C(F)(F)F)cc1)Cc1nnn[nH]1 [Compound 16i] = 4.23
10) O=C(N[C@@H](Cc1ccc(C(F)(F)F)cc1)Cc1nnn[nH]1)C1Cc2ccccc21 (stereo partly shown) [Compound 16b] = 5.39

### Prompt Param item = O=C(Cc1ccc(Cl)nc1)N[C@@H](Cc1ccc(C(F)(F)F)cc1)Cc1nnn[nH]1 [Compound 16v] ; retrieve measured LLEcAMP.
### Response 5.20

### Prompt Next entry: CCOc1cccc(CC(=O)N[C@@H](Cc2ccc(C(F)(F)F)cc2)Cc2nnn[nH]2)c1 [Compound 16m]
### Response 4.76

### Prompt Also check O=C(Cc1cccc(I)c1)N[C@@H](Cc1ccc(C(F)(F)F)cc1)Cc1nnn[nH]1 [Compound 16h]
### Response 4.57

### Prompt Follow-up entry: O=C(Cc1cccc(OC(F)(F)F)c1)N[C@@H](Cc1ccc(C(F)(F)F)cc1)Cc1nnn[nH]1 [Compound 16n]
### Response 3.85

### Prompt Follow-up entry: Cc1cccc(CC(=O)N[C@@H](Cc2ccc(C(F)(F)F)cc2)Cc2nnn[nH]2)c1 [Compound 8]
### Response 5.24

### Prompt Same again, this time with CCCCCC(=O)N[C@@H](Cc1ccc(C(F)(F)F)cc1)Cc1nnn[nH]1 [Compound 16p]
### Response 3.45

* * *

# Target: hFFA2 (Homo sapiens)
# Construct: expressed in transfected cells; host or cells: Flp-In T-Rex 293 cells, doxycycline-induced
# Sequence (O15552 1-330): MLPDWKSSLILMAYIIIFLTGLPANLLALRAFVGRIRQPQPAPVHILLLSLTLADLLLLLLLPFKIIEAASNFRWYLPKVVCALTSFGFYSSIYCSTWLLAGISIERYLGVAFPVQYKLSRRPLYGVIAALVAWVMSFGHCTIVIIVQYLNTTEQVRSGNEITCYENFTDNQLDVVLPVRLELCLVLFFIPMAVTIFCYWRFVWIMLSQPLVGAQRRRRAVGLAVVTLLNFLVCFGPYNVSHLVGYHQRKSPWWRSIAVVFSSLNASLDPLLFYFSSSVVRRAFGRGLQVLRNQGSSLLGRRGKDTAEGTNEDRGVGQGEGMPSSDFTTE
# Test Method Notes: cAMP assay, antagonist mode, Flp-In T-Rex 293 cells expressing hFFA2-eYFP
# Type: cell-based
# Test Parameters: hFFA2, antagonist mode, propionate at EC80; mean ± SEM, three or more experiments
Each entry below carries its recorded cAMP pIC50.
In your answer, state the number alone without any accompanying words.

Below, each entry is followed by its recorded cAMP pIC50 result.
1) O=C(Cc1ccc(Cl)nc1)N[C@@H](Cc1ccc(C(F)(F)F)cc1)Cc1nnn[nH]1 [Compound 16v] = 6.98
2) Cc1cccc(CC(=O)N[C@@H](Cc2ccc(C(F)(F)F)cc2)Cc2nnn[nH]2)c1 = 8.30

### Prompt Record request: cAMP pIC50 value, item O=C(CCc1ccccc1)N[C@@H](Cc1ccc(C(F)(F)F)cc1)Cc1nnn[nH]1 [Compound 16q]
### Response 6.78

### Prompt Same question for O=C(Cc1cccc(F)c1)N[C@@H](Cc1ccc(C(F)(F)F)cc1)Cc1nnn[nH]1 [Compound 16c] please.
### Response 8.26

### Prompt Cool, now O=C(Cc1cccc(C(F)(F)F)c1)N[C@@H](Cc1ccc(C(F)(F)F)cc1)Cc1nnn[nH]1 [Compound 16i]
### Response 7.68

### Prompt How about this compound: O=C(Cc1cncc(Br)c1)N[C@@H](Cc1ccc(C(F)(F)F)cc1)Cc1nnn[nH]1 [Compound 16w]
### Response 7.83

### Prompt And the next one, O=C(Cc1cccc(OC(F)(F)F)c1)N[C@@H](Cc1ccc(C(F)(F)F)cc1)Cc1nnn[nH]1 [Compound 16n] ?
### Response 7.44

### Prompt Continue with O=C(Cc1cccnc1)N[C@@H](Cc1ccc(C(F)(F)F)cc1)Cc1nnn[nH]1 [Compound 16s]
### Response 6.89

* * *

cAMP pIC50 reference
# Target: hFFA2 (Homo sapiens)
# Construct: expressed in transfected cells; host or cells: Flp-In T-Rex 293 cells, doxycycline-induced
# Sequence (O15552 1-330): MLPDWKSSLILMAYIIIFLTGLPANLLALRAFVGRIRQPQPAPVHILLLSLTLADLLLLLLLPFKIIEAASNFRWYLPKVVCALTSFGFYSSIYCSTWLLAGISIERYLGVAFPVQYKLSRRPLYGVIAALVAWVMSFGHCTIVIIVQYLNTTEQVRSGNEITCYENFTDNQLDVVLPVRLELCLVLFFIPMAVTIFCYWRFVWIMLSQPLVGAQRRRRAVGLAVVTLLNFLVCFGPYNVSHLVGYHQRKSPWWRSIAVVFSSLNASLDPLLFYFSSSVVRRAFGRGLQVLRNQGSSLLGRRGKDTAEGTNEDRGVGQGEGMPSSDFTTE
# Test Method Notes: cAMP assay, antagonist mode, Flp-In T-Rex 293 cells expressing hFFA2-eYFP
# Type: cell-based
# Test Parameters: hFFA2, antagonist mode, propionate at EC80; mean ± SEM, three or more experiments
// return a plain number; no unit text

// solved cases for cAMP pIC50 follow
1. O=C(Cc1cccc(I)c1)N[C@@H](Cc1ccc(C(F)(F)F)cc1)Cc1nnn[nH]1 [Compound 16h] = 8.26
2. CCCCCC(=O)N[C@@H](Cc1ccc(C(F)(F)F)cc1)Cc1nnn[nH]1 [Compound 16p] = 6.36
3. O=C(CC1CCCC1)N[C@@H](Cc1ccc(C(F)(F)F)cc1)Cc1nnn[nH]1 [Compound 16o] = 5.24

# context switch: different compound, same cAMP pIC50
### Prompt Which cAMP pIC50 is listed for COc1cccc(CC(=O)N[C@@H](Cc2ccc(C(F)(F)F)cc2)Cc2nnn[nH]2)c1 [Compound 16l] ?
### Response 8.35

FYI, the data here is from paper PMC10547238.
